Some compounds, each annotated with its measured IC50.
- Target or test system: purified human, His-tagged PRC2 complex (Homo sapiens, UniProt O75530+Q15910)
- Sequence (Q15910 whole entry): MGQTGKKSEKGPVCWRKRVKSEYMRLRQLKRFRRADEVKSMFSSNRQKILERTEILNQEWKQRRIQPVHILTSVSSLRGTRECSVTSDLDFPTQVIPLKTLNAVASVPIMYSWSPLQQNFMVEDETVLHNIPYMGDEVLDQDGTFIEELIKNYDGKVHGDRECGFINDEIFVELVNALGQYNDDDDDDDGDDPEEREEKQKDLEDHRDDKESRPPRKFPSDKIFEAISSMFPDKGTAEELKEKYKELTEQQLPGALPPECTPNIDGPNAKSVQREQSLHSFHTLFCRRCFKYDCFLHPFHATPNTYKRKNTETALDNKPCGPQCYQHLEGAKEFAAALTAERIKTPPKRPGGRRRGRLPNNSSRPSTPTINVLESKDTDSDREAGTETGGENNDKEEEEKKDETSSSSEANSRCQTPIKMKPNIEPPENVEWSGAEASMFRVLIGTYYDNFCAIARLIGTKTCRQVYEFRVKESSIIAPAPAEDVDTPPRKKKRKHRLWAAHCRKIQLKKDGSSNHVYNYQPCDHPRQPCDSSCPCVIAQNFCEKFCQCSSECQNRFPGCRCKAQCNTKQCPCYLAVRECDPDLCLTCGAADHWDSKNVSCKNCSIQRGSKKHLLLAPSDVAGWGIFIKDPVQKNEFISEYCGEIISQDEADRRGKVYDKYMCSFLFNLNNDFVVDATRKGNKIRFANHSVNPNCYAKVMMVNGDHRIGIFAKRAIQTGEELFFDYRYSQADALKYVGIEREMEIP
- Sequence (O75530 whole entry): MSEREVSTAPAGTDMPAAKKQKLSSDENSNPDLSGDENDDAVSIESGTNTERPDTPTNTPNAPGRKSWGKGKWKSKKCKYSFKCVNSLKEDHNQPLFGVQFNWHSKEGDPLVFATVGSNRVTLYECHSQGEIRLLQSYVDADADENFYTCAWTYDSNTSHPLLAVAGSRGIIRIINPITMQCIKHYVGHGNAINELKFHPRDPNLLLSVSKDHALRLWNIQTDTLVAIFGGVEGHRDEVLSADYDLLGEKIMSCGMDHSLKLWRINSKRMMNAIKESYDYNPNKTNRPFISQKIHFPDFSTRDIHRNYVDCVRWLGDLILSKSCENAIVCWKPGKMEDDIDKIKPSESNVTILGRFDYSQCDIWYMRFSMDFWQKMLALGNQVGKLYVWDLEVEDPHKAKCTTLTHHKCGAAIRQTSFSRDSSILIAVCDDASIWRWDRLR
- Sequence (Q15022 whole entry partner): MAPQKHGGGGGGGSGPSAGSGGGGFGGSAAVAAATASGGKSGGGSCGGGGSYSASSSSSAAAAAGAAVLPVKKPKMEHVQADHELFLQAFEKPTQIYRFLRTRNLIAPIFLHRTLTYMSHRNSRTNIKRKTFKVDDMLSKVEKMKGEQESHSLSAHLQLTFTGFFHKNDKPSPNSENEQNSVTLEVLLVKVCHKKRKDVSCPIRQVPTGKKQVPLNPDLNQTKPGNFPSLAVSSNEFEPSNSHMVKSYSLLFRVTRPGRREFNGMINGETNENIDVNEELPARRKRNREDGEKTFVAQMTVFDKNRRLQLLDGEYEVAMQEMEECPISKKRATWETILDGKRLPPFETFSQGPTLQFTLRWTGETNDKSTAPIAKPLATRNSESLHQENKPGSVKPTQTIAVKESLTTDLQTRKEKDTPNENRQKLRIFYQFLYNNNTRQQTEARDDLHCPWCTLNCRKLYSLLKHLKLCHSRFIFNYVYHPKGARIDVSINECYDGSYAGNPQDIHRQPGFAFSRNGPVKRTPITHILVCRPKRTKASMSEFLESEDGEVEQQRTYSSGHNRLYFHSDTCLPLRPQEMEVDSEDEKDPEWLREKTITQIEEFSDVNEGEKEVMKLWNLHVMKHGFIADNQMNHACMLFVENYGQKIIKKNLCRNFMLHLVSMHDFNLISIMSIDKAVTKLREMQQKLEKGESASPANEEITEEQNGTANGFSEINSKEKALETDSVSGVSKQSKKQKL
- Sequence (Q6ZN18 whole entry partner): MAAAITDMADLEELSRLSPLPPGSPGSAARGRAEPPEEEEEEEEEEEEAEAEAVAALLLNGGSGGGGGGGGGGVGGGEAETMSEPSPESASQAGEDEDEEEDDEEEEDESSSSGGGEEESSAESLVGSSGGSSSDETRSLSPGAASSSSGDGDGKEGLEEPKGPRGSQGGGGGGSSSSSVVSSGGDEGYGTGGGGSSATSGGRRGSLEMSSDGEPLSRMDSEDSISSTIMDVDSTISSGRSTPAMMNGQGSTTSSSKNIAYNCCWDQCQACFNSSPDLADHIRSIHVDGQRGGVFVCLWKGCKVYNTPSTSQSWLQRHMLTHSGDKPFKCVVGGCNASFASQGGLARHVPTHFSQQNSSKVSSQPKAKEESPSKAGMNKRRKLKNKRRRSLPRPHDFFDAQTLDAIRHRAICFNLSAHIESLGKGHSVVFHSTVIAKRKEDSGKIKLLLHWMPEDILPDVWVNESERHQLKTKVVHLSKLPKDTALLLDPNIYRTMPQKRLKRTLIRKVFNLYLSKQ
- Sequence (Q09028 whole entry partner): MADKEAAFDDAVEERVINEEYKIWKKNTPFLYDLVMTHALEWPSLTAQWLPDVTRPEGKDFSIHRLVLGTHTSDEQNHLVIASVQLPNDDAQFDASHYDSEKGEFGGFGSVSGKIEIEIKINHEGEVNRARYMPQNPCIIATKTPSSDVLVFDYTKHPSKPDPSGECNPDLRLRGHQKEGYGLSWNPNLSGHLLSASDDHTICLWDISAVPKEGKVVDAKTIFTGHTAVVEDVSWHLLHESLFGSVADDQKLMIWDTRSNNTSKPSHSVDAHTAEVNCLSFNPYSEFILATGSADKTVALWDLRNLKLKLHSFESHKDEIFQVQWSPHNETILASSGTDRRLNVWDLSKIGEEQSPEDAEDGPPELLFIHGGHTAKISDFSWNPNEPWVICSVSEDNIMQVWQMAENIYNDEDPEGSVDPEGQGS
- Experiment notes: Hot Spot HMT assay: inhibition of PRC2 enzymatic activity (transfer of tritiated methyl from SAM to core histone, filter binding)
- Assay type: biochemical
- Study conditions: Inhibition of PRC2-mediated enzymatic activity; 10 nM PRC2 complex, 0.05 mg/ml core histone H3, 1 uM 3H-SAM, 1 hr at 30°C

[
  {
    "Item smiles": "Cc1cc(-c2cnc(NCc3c(F)ccc4c3CCO4)n3cc(C#N)nc23)cnn1",
    "IC50": "< 100 nM"
  },
  {
    "Item smiles": "Cc1c(-c2cnc(NCc3c(F)ccc4c3CCO4)n3cc(C#N)nc23)cnc(CN(C)C)c1F",
    "IC50": "< 100 nM"
  },
  {
    "Item smiles": "N#Cc1cn2c(NCc3c(F)ccc4c3CCO4)ncc(C3CC3)c2n1",
    "IC50": "100 to 500 nM"
  }
]

Sure, the documented IC50 for N#Cc1cn2c(NCc3c(F)ccc4c3CCO4)ncc(C3CCOCC3)c2n1 is > 500 nM

Sure, the documented IC50 for Cc1cc(-c2cnc(NCc3c(F)ccc4occc34)n3cc(C(=O)O)nc23)n(C)n1 is < 100 nM
